experiment: chemical genetic growth profiling, strain panel (AID 1159580);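 further: tested at 20 µM; growth read once vehicle control cultures reached saturation at 30 °C; 1 = growth at the plate median or of vehicle wells; lower values mean less growth of the strain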; details: S. cerevisiae deletion strains, growth OD, locus YHR027C, strain rpn1, active compounds read low
About 2,000 (36%) of roughly 5,500 compounds were called active. Roughly 18% stayed inconclusive and do not appear here. Some of the results follow.
Item-by-item account of normalized growth
Form rule: numeric answer, no unit written next to it.

compound	normalized growth
CC1(C)O[C@@H]2CC3C4C[C@H](F)C5=CC(=O)CC[C@]5(C)C4[C@@H](O)C[C@]3(C)[C@]2(C(=O)CO)O1 (stereo not given in full)	1.02
O=C(Oc1cccc2cccnc12)c1ccccc1	0.929
C[C@H]1[C@H](C)CC[C@]2(C(=O)O)CC[C@]3(C)C(=CCC4[C@@]5(C)C[C@@H](O)[C@H](O)[C@@](C)(CO)C5CC[C@]43C)[C@H]12 (stereo not given in full)	1.02
Cc1ccccc1N1C(=O)c2cc(S(N)(=O)=O)c(Cl)cc2NC1C (stereo not given)	0.991
Cc1ncc(CO)c(CO)c1O	1.02

Please report the measured normalized growth for `COc1ccccc1N1CCN(CCCNc2cc(=O)n(C)c(=O)n2C)CC1` 1.01

Please report the measured normalized growth for `NCCCN` 1.01

Please report the measured normalized growth for `CCCc1nc(C)c2c(=O)[nH]c(-c3cc(S(=O)(=O)N4CCN(CC)CC4)ccc3OCC)nn12` 0.942

Please report the measured normalized growth for `CCCc1nn(C)c2c(=O)[nH]c(-c3cc(S(=O)(=O)N4CCN(C)CC4)ccc3OCC)nc12` 0.992

Please report the measured normalized growth for `COc1c(O)cc2c(c1O)[C@H]1O[C@H](CO)[C@@H](O)[C@H](O)[C@@H]1OC2=O` 1.01

Please report the measured normalized growth for `C=CCSCC=C` 0.96

Please report the measured normalized growth for NC[C@@H]1O[C@H](O[C@@H]2[C@@H](CO)OC(O[C@@H]3[C@@H](O)[C@H](N)C[C@H](N)[C@H]3O[C@H]3O[C@H](CO)[C@@H](O)[C@H](O)[C@H]3N)[C@@H]2O)[C@H](N)[C@@H](O)[C@@H]1O (stereo not given in full) 0.999

Please report the measured normalized growth for `Nc1nc(/C(=C/CC(=O)O)C(=O)N[C@@H]2C(=O)N3C(C(=O)O)=CCS[C@H]23)cs1` 1.01

Please report the measured normalized growth for O=c1c2cc(O)c(O)cc2oc2cc(O)c(C3O[C@H](CO)[C@H](O)[C@@H](O)[C@H]3O)c(O)c12 (stereo not given in full) 1.01

###

test: chemical genetic growth profiling, strain panel (AID 1159580);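 further: tested at 20 µM; growth read once vehicle control cultures reached saturation at 30 °C; 1 = growth at the plate median or of vehicle wells; lower values mean less growth of the strain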; conditions: S. cerevisiae deletion strains, growth OD, locus YDR318W, strain mcm21, active compounds read low
In all, about 5,500 compounds went through this assay and about 2,000 (36%) were called active. Roughly 18% stayed inconclusive and do not appear here. Some of the results follow.
endpointName: normalized growth
Form rule: numeric answer, no unit written next to it.

Please report the measured normalized growth for `COc1cc(C(=O)N2CCOCC2)cc(OC)c1OC` 0.0684

Please report the measured normalized growth for `C[C@]12CCC(=O)C=C1CCc1ccc(O)cc12` 0.986

Please report the measured normalized growth for CCCCC(=O)O[C@]1(C(=O)CO)[C@@H](C)CC2C3CCC4=CC(=O)C=C[C@]4(C)[C@@]3(F)C(O)C[C@@]21C (stereo not given in full) 0.996

Please report the measured normalized growth for `Nc1nc(/C(=C/CC(=O)O)C(=O)N[C@@H]2C(=O)N3C(C(=O)O)=CCS[C@H]23)cs1` 0.996

Please report the measured normalized growth for COC(=O)CC1C(C)(C)C(OC(C)=O)[C@@H]2[C@@H](OC(C)=O)[C@]34O[C@@]2(O)[C@]1(C)C3CC[C@]1(C)C4=CC(=O)O[C@H]1c1ccoc1 (stereo not given in full) 0.997

Please report the measured normalized growth for `CC(=O)Oc1ccccc1C(=O)Oc1ccccc1C(=O)O` 0.986

Please report the measured normalized growth for CC1(C)C(=O)CC[C@@]2(C)C1C[C@@H](O)[C@@]1(C)C3=CC(=O)O[C@@H](c4ccoc4)[C@]3(C)CCC21 (stereo not given in full) 1.01

Reference source: PubChem BioAssay AID1159580
